# Test system: microRNA 21
# assay_summary: Inhibition of Dicer mediated biotinylated pre-miRNA-21 (unknown origin) maturation at 1 mM measured after 15 mins by cat-ELCCA relative to control
# Type: nucleic-acid assay
The source made the active and inactive calls. The rule behind the calls is not given here.
measure_name: inhibition

Illustrative cases are given below, each with its answer.
If you can, please state the reported inhibition value of C=C1c2c(Cl)ccc(O)c2C(=O)C2=C(O)[C@]3(O)C(=O)C(C(N)=O)=C(O)[C@@H](N(C)C)[C@@H]3[C@@H](O)[C@H]12 .
40 to 100%

If you can, please state the reported inhibition value of NC[C@@H]1O[C@H](O[C@H]2[C@@H](O)[C@H](O[C@@H]3[C@@H](O)[C@H](N)C[C@H](N)[C@H]3O[C@H]3O[C@H](CN)[C@@H](O)[C@H](O)[C@H]3N)O[C@@H]2CO)[C@H](N)[C@@H](O)[C@@H]1O .
inactive

If you can, please state the reported inhibition value of CN(C)c1ccc(O)c2c1C[C@H]1C[C@H]3[C@H](N(C)C)C(O)=C(C(N)=O)C(=O)[C@@]3(O)C(O)=C1C2=O .
40 to 100%

If you can, please state the reported inhibition value of NC[C@H]1O[C@H](O[C@H]2[C@H](O)[C@@H](O[C@H]3O[C@H](CO)[C@@H](O)[C@H](N)[C@H]3O)[C@H](N)C[C@@H]2N)[C@H](O)[C@@H](O)[C@@H]1O .
inactive

Now take the following compound into account.
If you can, please state the reported inhibition value of CN(C)[C@@H]1C(O)=C(C(N)=O)C(=O)[C@@]2(O)C(O)=C3C(=O)c4c(O)cccc4[C@@](C)(O)[C@H]3[C@H](O)[C@@H]12 .
40 to 100%

###

# subject_of_test: microRNA 21
# assay_summary: Inhibition of Dicer mediated biotinylated pre-miRNA-21 (unknown origin) maturation preincubated for 15 mins followed by pre-miRNA-21 addition and measured after 5 hrs by cat-ELCCA
pIC50: −log10 of the molar value.
measure_name: pIC50

Illustrative cases are given below, each with its answer.
If you can, please state the reported pIC50 value of Oc1ccc(-c2csc(Cc3c[nH]c4ccccc34)n2)cc1O .
3.40

If you can, please state the reported pIC50 value of Nc1ccc(-c2nc3cc(-c4nc5ccccc5o4)ccc3[nH]2)cc1 .
3.64

If you can, please state the reported pIC50 value of O=c1nc(/C=C/c2ccc(O)c(O)c2)oc2ccccc12 .
3.16

P = CN1c2ccccc2C(C)(C)C12C=Cc1cc(O)ccc1O2 (centres undefined)
Q = O=c1oc2c(-c3cccc(Cl)c3)cc(O)cc2s1
R = COc1ccc(-c2cc(-c3cc(OC)ccc3O)[nH]n2)cc1
Sequence the entries by pIC50, beginning with the highest number. Labels, ranked as asked.
P, R, Q
(P: 4.82, R: 3.83, Q: 3.19)

###

# assay_summary: Binding affinity to biotinylated pre-let-7d microRNA (unknown origin) by SPR analysis
# experimental_parameters: read-out: Kd
measure_name: Kd (µM)

a = C=C1c2cccc(O)c2C(=O)C2=C(O)[C@]3(O)C(=O)C(C(N)=O)=C(O)[C@@H](N(C)C)[C@@H]3[C@@H](O)[C@H]12
b = C=C1c2c(Cl)ccc(O)c2C(=O)C2=C(O)[C@]3(O)C(=O)C(C(N)=O)=C(O)[C@@H](N(C)C)[C@@H]3[C@@H](O)[C@H]12
Which numeric Kd is bigger, that of a or that of b ? API: response body contains the label of the selected item.
a

Data origin: ChEMBL document CHEMBL4364240
